System: MDCK cells
Test: MTT cell viability assay, MDCK
Format: cell-based, Canine
Particulars: Canis lupus familiaris, 72 hours
Measure Name: IC50 (µg/mL)
Respond numerically; units are µg/mL and should not be typed.

// below: answered molecules
* Cc1cc(O)c2c(c1)C(=O)c1cc(O)cc(O)c1C2=O [S-1, 3-methyl-1,6,8-trihydroxyanthraquinone, reference compound] | 5.81
* CC(=O)O[C@@H]1[C@@H](O)[C@@H](O)[C@H](Oc2cc(O)c3c(c2)C(=O)c2cc(C)cc(O)c2C3=O)O[C@H]1C | 21.1
* CC(=O)O[C@@H]1[C@@H](O[C@@H]2O[C@@H](C)[C@H](O)[C@@H](OC(C)=O)[C@H]2OC(C)=O)[C@H](C)O[C@@H](Oc2cc(O)c3c(c2)C(=O)c2cc(C)cc(O)c2C3=O)[C@@H]1OC(C)=O | 18.5

Would you kindly share the measured IC50 for `CC(=O)O[C@@H]1[C@@H](OC(C)=O)[C@@H](O)[C@H](Oc2cc(O)c3c(c2)C(=O)c2cc(C)cc(O)c2C3=O)O[C@H]1C` ? 14.8

Queued: `COc1cc(C)cc2c1C(=O)c1c(OC)cc(O[C@@H]3O[C@@H](C)[C@H](O)[C@@H](OC(C)=O)[C@H]3OC(C)=O)cc1C2=O` 1.39
